- test-summary: Microsome stability assay, human liver microsomes
- Format: in vitro ADME
- condition-notes: human, human liver microsomes, pooled; 1 μM compound, 0.5 mg/mL microsomal protein, NADPH, 37° C.; read-out: Microsome Stability Human liver microsomes T½
recorded-metric: half-life at 1 h, 1 µM (min)

[
  {
    "compound": "Cc1ccc(C(NC(=O)c2ccc(C(F)(F)F)[nH]c2=O)c2ccccc2)cc1C (centres unmarked)",
    "units-label": "min",
    "half-life at 1 h, 1 µM": 2.7
  }
]

(1) O=C(NC(c1ccccc1)c1ccc(O)cc1)c1ccc(C(F)(F)F)[nH]c1=O (centres unmarked)
(2) CCCC1Cc2ccc(C)cc2C1NC(=O)c1ccc(C(F)(F)F)[nH]c1=O (centres unmarked)
Out of 1 and 2 , name the one with the higher half-life at 1 h, 1 µM. Your choice should be expressed through its label.
1

(a) CCC1Cc2cc(OC)ccc2C1NC(=O)c1ccc(C(F)(F)F)[nH]c1=O (centres unmarked)
(b) CCCC1CCc2cc(C)ccc2C1NC(=O)c1ccc(C(F)(F)F)[nH]c1=O (centres unmarked)
(c) Cc1ccc(CNC(=O)c2ccc(C(F)(F)F)[nH]c2=O)cc1
(d) O=C(Nc1cccc2c(O)cccc12)c1ccc(C(F)(F)F)[nH]c1=O
Please produce an ascending ranking of these compounds based on half-life at 1 h, 1 µM. Ranked list of labels, please, in the requested order.
c, a, b, d
(c: 3.35 min, a: 6.26 min, b: 10.1 min, d: 93.7 min)

----------
- assay-target: HSD17B13 (Homo sapiens (Human), UniProt Q7Z5P4)
- Sequence (Q7Z5P4 other isoform, or with tags, fused parts or gaps): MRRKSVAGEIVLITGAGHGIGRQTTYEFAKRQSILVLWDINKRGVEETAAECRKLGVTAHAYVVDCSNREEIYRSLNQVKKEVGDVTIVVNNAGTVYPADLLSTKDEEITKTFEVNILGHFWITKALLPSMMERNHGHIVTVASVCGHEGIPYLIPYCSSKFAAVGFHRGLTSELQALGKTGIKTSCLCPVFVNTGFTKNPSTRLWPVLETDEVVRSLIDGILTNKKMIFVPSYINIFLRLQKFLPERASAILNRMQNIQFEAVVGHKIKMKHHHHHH
- test-summary: HSD17B13 enzymatic inhibition assay (150 nM or 50 nM HSD17B13)
- Format: biochemical
- condition-notes: 50 nM HSD17B13; read-out: Inhibition of 50 nM of HSD17B13 IC50
recorded-metric: IC50 (µM)

(P) CCc1cccc(NC(=O)c2ccc(C(F)(F)F)[nH]c2=O)c1 [Compound 225]
(Q) O=C(Nc1cccc(Cl)c1)c1ccc(C(F)(F)F)[nH]c1=O [Compound 227]
Out of P and Q , name the one with the higher IC50. Your choice should be expressed through its label.
Q

----------
pIC50, HSD17B2 (Homo sapiens (Human)), per-entry values.
pIC50: −log10 of the molar value.
recorded-metric: pIC50

# annotated cases, reported pIC50 shown
[
  {
    "molecule": "Cc1ccc2c(c1)Oc1cc(C)ccc1C2NC(=O)c1cc(-c2cncnc2)c(C(F)(F)F)[nH]c1=O",
    "pIC50": 5.01
  },
  {
    "molecule": "O=C(NC1c2ccccc2Oc2ccccc21)c1ccc(C(F)(F)F)[nH]c1=O",
    "pIC50": 4.84
  },
  {
    "molecule": "Cc1ccc2c(c1)Oc1ccccc1C2NC(=O)c1ccc(C(F)(F)F)[nH]c1=O (centres unmarked)",
    "pIC50": 5.04
  },
  {
    "molecule": "N#Cc1ccc(C(NC(=O)c2ccc(C(F)(F)F)[nH]c2=O)c2ccccc2)cc1 (centres unmarked) [Compound 12A]",
    "pIC50": 4.63
  },
  {
    "molecule": "O=C(NC(c1ccccc1)c1ccc2c(c1)COC2)c1ccc(C(F)(F)F)[nH]c1=O (centres unmarked)",
    "pIC50": 4.73
  }
]

(I) CCCC1CC(NC(=O)c2ccc(C(F)(F)F)[nH]c2=O)c2ccc(C)cc2O1 (centres unmarked)
(II) O=C(NC(Cc1ccccc1)c1ccc(Cl)cc1)c1ccc(C(F)(F)F)[nH]c1=O (centres unmarked) [Compound 19A]
Out of I and II , name the one with the higher pIC50. Your choice should be expressed through its label.
II
